Exercise: state measured pIC50 for each of the compounds provided.
- tested_on: CDK2/CycE (Homo sapiens)
- Construct: GST; purchased ProQinase GmbH (Freiburg, Germany); host or cells: insect cells (Sf9)
- method_summary: CDK2/CycE kinase assay (TR-FRET, 10 μM ATP)
- Assay type: biochemical
- condition_description: Method 2 (2a)
One number for each entry, as −log10 of the molar value.

// worked examples, pIC50 included
>  <compound>
COc1cc(F)ccc1-c1cc(Nc2cc(CS(C)(=N)=O)ccn2)ncc1F (racemic) [Example 1]

>  <tested_on>
CDK2/CycE (Homo sapiens)

>  <pIC50>
6.39

$$$$
>  <compound>
COc1cc(F)ccc1-c1cc(Nc2cc(CS(C)(=N)=O)cc(C(F)F)n2)ncc1F (racemic)

>  <tested_on>
CDK2/CycE (Homo sapiens)

>  <pIC50>
8.00

$$$$
>  <compound>
COc1cc(F)ccc1-c1cc(Nc2cc(CS(C)(=O)=NC(=O)C(F)(F)F)cc(C(F)(F)F)n2)ncc1F (single isomer, unassigned; (-)) [Example 25]

>  <tested_on>
CDK2/CycE (Homo sapiens)

>  <pIC50>
6.96

$$$$
>  <compound>
COc1cc(F)ccc1-c1cc(Nc2cc(CS(C)(=N)=O)cc(F)n2)ncc1F (single isomer, unassigned; (+)) [Example 19]

>  <tested_on>
CDK2/CycE (Homo sapiens)

>  <pIC50>
7.03

$$$$
>  <compound>
COc1cc(F)ccc1-c1cc(Nc2cc(CS(C)(=N)=O)cc(F)n2)ncc1F (single isomer, unassigned; (-)) [Example 20]

>  <tested_on>
CDK2/CycE (Homo sapiens)

>  <pIC50>
7.14

$$$$

Provide reported pIC50 for each item, in the same order as listed.
1. COc1cc(F)ccc1-c1cc(Nc2cc(CS(C)(=N)=O)cc(C(F)(F)F)n2)ncc1F (single isomer, unassigned; (+)) [Example 22]
2. COc1cc(F)ccc1-c1cc(Nc2cc(CS(C)(=N)=O)cc(C)n2)ncc1F (single isomer, unassigned; (-)) [Example 33]
3. COc1cc(F)ccc1-c1cc(Nc2cc(CS(C)(=N)=O)ccn2)ncc1F (single isomer, unassigned; (+)) [Example 2]
4. CCNC(=O)N=S(C)(=O)Cc1ccnc(Nc2cc(-c3ccc(F)cc3OC)c(F)cn2)c1 (racemic)
5. COc1cc(F)ccc1-c1cc(Nc2cc(CS(C)(=N)=O)ccn2)ncc1F (single isomer, unassigned; enantiomer 1) [Example 16]

7.74
7.17
6.44
6.85
6.37

Provide reported pIC50 for each item, in the same order as listed.
1. COc1cc(F)ccc1-c1cc(Nc2cc(CS(C)(=O)=NC(=O)C(F)(F)F)cc(F)n2)ncc1F (racemic)
2. CCS(=N)(=O)Cc1ccnc(Nc2cc(-c3ccc(F)cc3OC)c(F)cn2)c1 (racemic)
3. COc1cc(F)ccc1-c1cc(Nc2cc(CS(=N)(=O)CCN)ccn2)ncc1F (racemic)
4. COc1cc(F)ccc1-c1cc(Nc2cc(CS(C)(=N)=O)cc(F)n2)ncc1F (racemic) [Example 17]

7.41
6.68
6.62
7.31

---

- tested_on: CDK2/CycE (Homo sapiens)
- Construct: GST; purchased ProQinase GmbH (Freiburg, Germany); host or cells: insect cells (Sf9)
- method_summary: CDK2/CycE high ATP kinase assay (TR-FRET, 2 mM ATP)
- Assay type: biochemical
- condition_description: Method 2b
- Procedure: 2b. CDK2/CycE High ATP Kinase Assay: CDK2/CycE-inhibitory activity of compounds of the present invention at 2 mM adenosine-tri-phosphate (ATP) was quantified employing the CDK2/CycE TR-FRET (TR-FRET=Time Resolved Fluorescence Energy Transfer) assay as described in the following paragraphs. […]
pIC50: −log10 of the molar value.
Classification field: enter satisfied for pIC50 values not below 6, not satisfied for values below it.

Examples from the recorded data:
>  <compound>
COc1cc(F)ccc1-c1cc(Nc2cc(CS(C)(=N)=O)ccn2)ncc1F.Cl (single isomer, unassigned; enantiomer 2)

>  <label_value>
not satisfied

$$$$
>  <compound>
CCOC(=O)N=S(C)(=O)Cc1cc(Nc2cc(-c3ccc(F)cc3OC)c(F)cn2)nc(OC)c1 (racemic)

>  <label_value>
satisfied

$$$$

Would you say CCOc1cc(F)ccc1-c1cc(Nc2cc(CS(C)(=O)=NC(=O)C(F)(F)F)cc(F)n2)ncc1F (racemic) shows pIC50 at minimum 6?
not satisfied

Would you say COc1cc(F)ccc1-c1cc(Nc2cc(CS(C)(=N)=O)cc(C(F)F)n2)ncc1F (racemic) shows pIC50 at minimum 6?
satisfied
